Header: IC50 / PIK3CD (Human) (UniProt O00329) / multiple publications

| compound | experimental.value |
| --- | --- |
| Cc1cn(-c2cnc3ccc(-c4ccc5oc(N)nc5c4)cc3n2)cn1 | > 10000 nM |
| Cc1cccc2cc([C@H](C)Nc3ncnc4[nH]c(Cl)nc34)n(C3CC3)c(=O)c12 | > 10000 nM |
| Cn1ncc2c(-c3ccc(N)nc3)nc(N3CCOCC3)nc21 | 100 to 10000 nM |
| Cc1ccccc1-n1c(Cn2nc(Br)c3c(N)ncnc32)cc2cccc(C)c2c1=O | < 100 nM |

Problem: Requested read-out: IC50. Entry: Nc1nc2cc(-c3cn4c(-c5ccncc5)cnc4cn3)ccc2o1
Result: < 10000 nM

Problem: Requested read-out: IC50. Entry: Cc1ccccc1-n1c(Cn2nc(/C=C/C(N)=O)c3c(N)ncnc32)cc2cccc(C)c2c1=O
Result: < 100 nM

Problem: Requested read-out: IC50. Entry: COc1ncc(-c2nc(N3CCOCC3)nc3c(CN4CCN(C(=O)CC#N)CC4)c(C)sc23)cc1NS(C)(=O)=O
Result: 17 nM

Problem: Requested read-out: IC50. Entry: COc1cc(-c2cccc3cc(C(C)NC(=O)c4c(N)nn5cccnc45)c(-c4ccccc4)nc23)ccn1 (centres unmarked)
Result: > 10000 nM

Problem: Requested read-out: IC50. Entry: CC(=O)Nc1nc2ccc(-c3nn(Cc4cc5cccc(C)c5c(=O)n4C)c4ncnc(N)c34)cc2s1
Result: < 100 nM

Problem: Requested read-out: IC50. Entry: C[C@H](Nc1ncnc2[nH]cnc12)c1cc2cc(F)ccc2c(CCN2CCOCC2)n1
Result: < 1000 nM

Problem: Requested read-out: IC50. Entry: Nc1nc2cc(-c3ccc4ncc(N5CCCCC5)nc4c3)ccc2o1
Result: > 10000 nM
